Target: Type-1 angiotensin II receptor B (Rattus norvegicus)
Sequence (P29089 whole entry): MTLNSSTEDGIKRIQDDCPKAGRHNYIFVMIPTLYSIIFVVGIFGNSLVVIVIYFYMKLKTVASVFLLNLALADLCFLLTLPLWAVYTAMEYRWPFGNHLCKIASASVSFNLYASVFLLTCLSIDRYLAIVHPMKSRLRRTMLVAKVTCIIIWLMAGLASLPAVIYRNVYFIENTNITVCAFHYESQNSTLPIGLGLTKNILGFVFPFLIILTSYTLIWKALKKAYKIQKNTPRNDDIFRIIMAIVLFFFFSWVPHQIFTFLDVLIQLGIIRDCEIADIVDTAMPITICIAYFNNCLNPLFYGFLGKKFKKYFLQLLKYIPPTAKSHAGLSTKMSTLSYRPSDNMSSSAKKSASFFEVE
readout.kind: IC50 (nM)
Return type: number; implicit unit nM.

Item: CCCCC1=NCC2(CCCC2)C(=O)N1Cc1ccc(-c2ccccc2C(=O)O)cc1 | IC50: 71
